test: Quantitative High-Throughput drug screen in 47 multiple myeloma cell lines against the NCATS MIPE library collection: KMS20_JCRB cell viability assay (AID 1918973); also: nearly all actives have a fitted effect of over 45% in size
measurement_conditions: CellTiter-Glo ATP, 48 h; series mostly up to 45.8 µM
Records with an inconclusive call do not appear. Calls of active or inactive are those of the source. Calls follow the shape of the dose curve; as a rule, active = well fitted cell-killing curve with a large enough effect; inconclusive = small, poorly fitted or top-dose-only effect, or effect the other way; inactive = no such curve, though single readings can be large or run the other way.
Possible outcomes: true (1) for active, false (0) for inactive

- O=c1[nH]nc(OCCCc2ccc(Cl)cc2)c(NCc2cccnc2)c1Br: true (1)
- Nc1nc(Cl)nc2c1ncn2[C@@H]1O[C@H](CO)[C@@H](O)[C@H]1F: true (1)
- CC(C)n1c(C=C[C@H](O)C[C@H](O)CC(=O)O)c(-c2ccc(F)cc2)c2ccccc21: true (1)
- c1cc(OCCN2CCCCC2)cc(-c2n[nH]c3ccc(-c4ncn[nH]4)cc23)c1: true (1)
- COc1ccc(-c2cc3nccn3c(Nc3ncccc3C(N)=O)n2)cc1OC: true (1)
- COc1ccc2c(c1)c(C1=C(c3c[nH]c4ccccc34)C(=O)NC1=O)cn2CCCN(C)C: true (1)
- CCN1CCN(c2ccc(Nc3cc(N(C)C(=O)Nc4c(Cl)c(OC)cc(OC)c4Cl)ncn3)cc2)CC1: true (1)
- Cc1nc(NC(=O)N2CCC[C@@H]2C(N)=O)sc1-c1csc(C(C)(C)C)n1: true (1)
- CC(C)CN(C[C@H](O)[C@H](Cc1ccccc1)NC(=O)O[C@H]1CCOC1)S(=O)(=O)c1ccc(N)cc1: true (1)
- CCN1CCC(n2cc(CNc3cc(Cl)c4ncc(C#N)c(Nc5ccc(F)c(Cl)c5)c4c3)nn2)CC1: true (1)
- CCC(=C(CC)c1ccc(O)cc1)c1ccc(O)cc1: false (0)
- C[C@H](CCC(=O)O)[C@H]1CC[C@H]2[C@H]3[C@@H](CC[C@]12C)[C@@]1(C)CC[C@@H](O)C[C@H]1C[C@@H]3O: false (0)
- Cc1ccc2c(=O)c3cccc(CC(=O)O)c3oc2c1C: true (1)
- CCCCC(F)(F)[C@@]1(O)CC[C@H]2[C@H](CC(=O)[C@@H]2CCCCCCC(=O)O)O1: true (1)
- CN(C)S(=O)(=O)c1ccc2c(c1)C(=Cc1cc3c([nH]1)CCCC3)C(=O)N2: true (1)
- CC[C@H]1OC(=O)[C@H](C)[C@@H](O[C@H]2C[C@@](C)(OC)[C@@H](O)[C@H](C)O2)[C@H](C)[C@@H](O[C@@H]2O[C@H](C)C[C@H](N(C)C)[C@H]2O)[C@](C)(O)C[C@H](C)C(=NOCOCCOC)[C@H](C)[C@@H](O)[C@]1(C)O: false (0)
- Cc1ccccc1-n1c(Cn2nc(-c3cccc(O)c3)c3c(N)ncnc32)nc2cccc(C)c2c1=O: true (1)
- CN1[C@H]2CC[C@H]1CC(OC(=O)c1c[nH]c3ccccc13)C2 (stereo partly drawn): true (1)

###

System: OV90
test: Primary qHTS to identify gynecologic anti-cancer compounds using libraries of approved drugs and bioactive compounds (AID 1345084); also: nearly all actives have a fitted effect of over 55% in size
measurement_conditions: Gynecologic cancer cell panel viability, ATPlite luminescence, 48 h; series mostly up to 57.5 µM
Results filed as inconclusive are left out. Calls of active or inactive are those of the source. Calls follow the shape of the dose curve; as a rule, active = well fitted cell-killing curve with a large enough effect; inconclusive = small, poorly fitted or top-dose-only effect, or effect the other way; inactive = flat fitted curve, though single readings scatter.
Possible outcomes: active, inactive

• Cc1cc(-c2ncc(CC(=O)Nc3ccc(-c4cnccn4)cn3)cc2C)ccn1 = inactive
• Cc1ccccc1-n1c(Cn2nc(-c3cccc(O)c3)c3c(N)ncnc32)nc2cccc(C)c2c1=O = inactive
• O[C@@H](COc1cccc2ncccc12)CN1CCN(C2c3ccccc3[C@@H]3[C@H](c4ccccc42)C3(F)F)CC1 (stereo partly drawn) = inactive
• CC(C)(C)c1nc(-c2cccc(NS(=O)(=O)c3c(F)cccc3F)c2F)c(-c2ccnc(N)n2)s1 = inactive
• COc1cc(Nc2nc3ccccc3nc2NS(=O)(=O)c2ccc(NC(=O)c3ccc(C)c(OC)c3)cc2)cc(OC)c1 = inactive
• CCNC(=O)c1noc(-c2cc(C(C)C)c(O)cc2O)c1-c1ccc(CN2CCOCC2)cc1 = active
• Cc1c(C(=O)Nc2ccc(N3C[C@@H](C)O[C@@H](C)C3)nc2)cccc1-c1ccc(OC(F)(F)F)cc1 = inactive
• CNC(=O)c1ccc2c(C(=Nc3cccc(CN(C)C)c3)c3ccccc3)c(O)[nH]c2c1 = inactive

Numbers sourced from PubChem BioAssay (NCATS).
